Values compiled from ChEMBL document CHEMBL4513216.

Assay: Toxicity liver stage against HepG2, at 10uM
Assay type: cell-based
Parameters: test concentration 10 uM, cell line HepG2-A16-CD81EGFP
Details: human, HepG2-A16-CD81EGFP cells; read-out: INHIBITION
METRIC: cytotoxicity at 10 µM (%)

compound=c1cnn(CC2CCN(c3nc(C4CC4)nc4c3CCNCC4)CC2)c1 metric="cytotoxicity at 10 µM" value_units=% measurement=-2.84
compound="O=C1OCCC1N1CCN(c2ccccn2)CC1 (centres undefined)" metric="cytotoxicity at 10 µM" value_units=% measurement=7.37
compound="Cc1noc(C)c1CN1CCC2(CC1)C(c1ccccc1)CC(=O)N2C (centres undefined)" metric="cytotoxicity at 10 µM" value_units=% measurement=-105
compound=Cc1nn(C)cc1C(=O)N1C[C@@H]2CC[C@H]1CN(S(=O)(=O)N(C)C)C2 metric="cytotoxicity at 10 µM" value_units=% measurement=19.8
compound="Cc1ccc(C(CNCc2cccnc2)N2CCOCC2)s1 (centres undefined)" metric="cytotoxicity at 10 µM" value_units=% measurement=4.03
compound="O=S1(=O)c2ccccc2C2(CCN(Cc3cccnc3)C2)N1CC1CC1 (centres undefined)" metric="cytotoxicity at 10 µM" value_units=% measurement=-68.7
compound="O=C1CC(c2ccc(C(=O)O)cc2)c2c(sc3c2CCCC3)N1 (centres undefined)" metric="cytotoxicity at 10 µM" value_units=% measurement=-5.14
compound="COCC1CN(C(=O)Cc2cccc(F)c2)Cc2ccnn2C1 (centres undefined)" metric="cytotoxicity at 10 µM" value_units=% measurement=-73
compound="COc1ccc(C(CO)NC(=O)Nc2cccnc2)cc1 (centres undefined)" metric="cytotoxicity at 10 µM" value_units=% measurement=-15.7
compound=O=C([C@H]1CCCO1)N1CCc2ncc(CN3CCOCC3)n2CC1 metric="cytotoxicity at 10 µM" value_units=% measurement=-72.3
compound=Cc1nc(C2CCNCC2)cc(N(C)CCc2cn[nH]c2)n1 metric="cytotoxicity at 10 µM" value_units=% measurement=-1.54
compound="c1ccc(OCC2CC3(CCN(Cc4ccncc4)CC3)CO2)nc1 (centres undefined)" metric="cytotoxicity at 10 µM" value_units=% measurement=-12.5
compound="CCOCCN1CCC=C(C2c3nc[nH]c3CCN2C(C)=O)C1 (centres undefined)" metric="cytotoxicity at 10 µM" value_units=% measurement=-3.67
compound=CS(=O)(=O)NCCNC(=O)c1cnc(-c2ccccc2)nc1 metric="cytotoxicity at 10 µM" value_units=% measurement=5.3
compound="CN(C(=O)Nc1ccccn1)C1CCCN(c2ccccc2)C1=O (centres undefined)" metric="cytotoxicity at 10 µM" value_units=% measurement=-6.63
compound=Cc1cnc(C)c(N2CCC(c3nnc(CN(C)C)n3C3CC3)CC2)n1 metric="cytotoxicity at 10 µM" value_units=% measurement=-0.918
compound=CC(C)Cn1nc(-c2ccc(C(=O)O)cc2)cc1-c1ccc(F)cc1 metric="cytotoxicity at 10 µM" value_units=% measurement=8.88
compound=CCc1nc(CN2CCCN(c3ncnc4ccccc34)CC2)no1 metric="cytotoxicity at 10 µM" value_units=% measurement=43.6
compound="CC(CC1CC1)NCCCN1CCCN(C)CC1 (centres undefined)" metric="cytotoxicity at 10 µM" value_units=% measurement=31.7
compound="O=C(N1CCCC1)N1CCc2ncnc(C3CCOC3)c2CC1 (centres undefined)" metric="cytotoxicity at 10 µM" value_units=% measurement=3.45
compound="COCCCN1CC2(CCCN(c3ncc(Cl)cc3F)C2)CCC1=O (centres undefined)" metric="cytotoxicity at 10 µM" value_units=% measurement=-13.1
compound=Cn1ccnc(Sc2ccccc2)c1=O metric="cytotoxicity at 10 µM" value_units=% measurement=0.483
compound="CC(C)(C)c1nccc(N2CCCCC2CNS(C)(=O)=O)n1 (centres undefined)" metric="cytotoxicity at 10 µM" value_units=% measurement=-2.84
compound="Cc1ccsc1CN(C)C(=O)C1CCCN(C(N)=O)C1 (centres undefined)" metric="cytotoxicity at 10 µM" value_units=% measurement=5.09
